Test: Antioxidant activity assessed as hydroxyl radical scavenging activity by measuring malondialdehyde formation at 100 mg/ml after 90 mins by thiobarbituric acid method
Assay type: functional
Listing of recorded Activity by entry.
reported property: Activity

• Cc1ccc(C(=O)CNC(=O)/C=C/c2ccc(O)cc2)cc1 = 17%
• Cc1ccc(C(=O)CNC(=O)CCc2cccnc2)cc1 = 19%
• Cc1ccc(C(O)CNC(=O)Cc2cccnc2)cc1 (racemic) = 17%
• COc1ccc([C@@H](O)CNC(=O)/C=C/c2ccccc2)cc1 = 18%
• COc1cc(/C=C/C(=O)NCC(O)c2ccc(C)cc2)ccc1O (mixture of isomers) = 18%

###

Experiment: Antioxidant activity assessed as xanthine-xanthine oxidase generated superoxide anion scavenging at 200 mg/ml after 30 mins by NBT reduction assay
Type: functional
reported property: Activity

* Cc1ccc(C(=O)CNC(=O)/C=C/c2ccc(O)cc2)cc1 | 31%
* Cc1ccc(C(O)CNC(=O)Cc2cccnc2)cc1 (racemic) | 31%
* Cc1ccc(C(=O)CNC(=O)CCc2cccnc2)cc1 | 31%
* Oc1ncnc2[nH]ncc12 | 69%
* COc1ccc([C@@H](O)CNC(=O)/C=C/c2ccccc2)cc1 | 25%
* COc1cc(/C=C/C(=O)NCC(O)c2ccc(C)cc2)ccc1O (mixture of isomers) | 32%

Entry source: ChEMBL document CHEMBL1909603
